Values were extracted from the supplement of paper PMC10307832.

Could you please report measured relative viability for the items listed next?
- Test system: NCI-H1755
- assay.details: relative viability (nuclei count vs DMSO), 5 days (fraction); higher = more cells survive
- conditions: first compound 6.325 µM
When you answer, write just the number.

The value of relative viability measured for the molecule Cc1csc(=NC2CCCCC2)n1/N=C/c1ccc(O)c(O)c1O [MIM1] + CC1(C)CCC(c2ccc(Cl)cc2)=C(CN2CCN(c3ccc(C(=O)NS(=O)(=O)c4ccc(N[C@H](CCN5CCOCC5)CSc5ccccc5)c(S(=O)(=O)C(F)(F)F)c4)cc3)CC2)C1 [Navitoclax] (partner 0.5 µM) turned out to be 0.703

Lab note: Cc1csc(=NC2CCCCC2)n1/N=C/c1ccc(O)c(O)c1O [MIM1] + COc1cccc2cc(-c3nc([C@H]4CC[C@H](C(=O)O)CC4)n4ncnc(N)c34)[nH]c12 [OSI-027] (partner 0.5 µM) gave relative viability of 0.703

Field relative viability (entry Cc1csc(=NC2CCCCC2)n1/N=C/c1ccc(O)c(O)c1O [MIM1] + O=C(CCCCCCC(=O)Nc1ccccc1)NO [Vorinostat] (partner 1 µM) ) reads 0.671

Looking up Cc1csc(=NC2CCCCC2)n1/N=C/c1ccc(O)c(O)c1O [MIM1] + C[C@@H](Oc1cc(-c2cnn(C3CCNCC3)c2)cnc1N)c1c(Cl)ccc(F)c1Cl [Crizotinib] (partner 1 µM) , I see its relative viability listed as 0.68

Kindly note the recorded relative viability for Cc1csc(=NC2CCCCC2)n1/N=C/c1ccc(O)c(O)c1O [MIM1] + Nc1nc2[nH]cc(CCc3ccc(C(=O)N[C@@H](CCC(=O)O)C(=O)O)cc3)c2c(=O)[nH]1 [Pemetrexed] (partner 0.2 µM) , which is 0.41

Reported relative viability for Cc1csc(=NC2CCCCC2)n1/N=C/c1ccc(O)c(O)c1O [MIM1] + CS(=O)(=O)N1CCN(Cc2cc3nc(-c4cccc5[nH]ncc45)nc(N4CCOCC4)c3s2)CC1 [Pictilisib] (partner 1 µM) was 0.37
